- Test system: GRK1;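 also: KINOMEscan kinase panel screen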
- assayConditions: concentration: 1 μM, replicates: in singlicate; n = 1
reportedEndpoint: %Inh

>>> recordedresult("CCc1nc(-c2cccc(N(C)S(=O)(=O)c3ccccc3)c2)c(-c2ccnc(Nc3ccc(N4CCN(C(C)=O)CC4)nc3)n2)s1")
"0%"
>>> recordedresult("FC(F)(F)c1ccc(-c2nn3ncccc3c2-c2ccnc(Nc3cccc(C(F)(F)F)c3)n2)cc1")
"11%"
>>> recordedresult("Fc1ccc(-c2ncn(CCCNCc3ccccc3)c2-c2ccncc2)cc1")
"12%"
>>> recordedresult("Cl.O=S(=O)(c1cccc(F)c1)c1ccc(Nc2ncnc3cc(Br)sc23)cc1Cl")
"4%"
>>> recordedresult("Cn1ccc2ncnc(Oc3ccc(NC(=O)Nc4cccnc4)c(Cl)c3)c21")
"13%"
>>> recordedresult("COc1ccc(Nc2nccc(N3CCC(NC(=O)Nc4ccc5c(c4)OCO5)C3)n2)cc1 (centres unmarked)")
"13%"
>>> recordedresult("NC(=O)c1sc(-n2cnc3ccccc32)cc1OCc1ccccc1F")
"0%"
>>> recordedresult("Cc1ccc(NC(=O)c2cccc(C#N)c2)cc1-c1ccc(C(=O)Nc2ccncc2)cc1")
"0%"
